experimental system: Vasopressin V1a receptor (Homo sapiens)
protocol text: V1a receptor agonists, calcium signal, counter-screen for OXTR agonist project, triplicate, fluorescence, CHO-V1R cells (AID 434991);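 note: peak over basal fluorescence ratio within a 100 second read; 0% = DMSO alone and 100% = 3 nM vasopressin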
cond: Fluo-8 calcium fluorescence, at 3 µM
The other results are listed elsewhere or left out. Activity calls are given as the source filed them.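 Rule for the calls: active = mean activation over triplicate exceeds the hit threshold set in the earlier primary screen (cut at about 20% in these data); inactive = the rest.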
Respond only with the outcome that fits, drawn from 1 (active), 0 (inactive)

Entry CC1(C)CC[C@@]2(C(=O)O)C(C1)C1=CCC3[C@@]4(C)CC[C@H](O)C(C)(C)C4CC[C@@]3(C)[C@]1(C)C[C@H]2O (stereo not given in full) : call = ?
0

Returns: the outcome recorded for `CN(C)S(=O)(=O)c1ccc(Oc2ccc(S(=O)(=O)N(C)C)cc2)cc1` in this assay.
0

Which outcome was entered for the compound `Cc1cc(S(=O)(=O)c2cc3ccc(O)c(C)c3oc2=O)ccc1F` in this test?
0

Tell me the recorded outcome of this test for `CCCCCCCCCCOC(=O)Cn1c(COc2cccc(OC)c2)[n+](C)c2ccccc21` .
0

For `CCOc1cc(/C=C(\C#N)c2nc(-c3cccs3)c(NC(C)=O)s2)ccc1O` , which call appears in the assay record?
1

----------
protocol text: StAR promoter reporter inhibitors, counter-screen for LRH-1 inverse agonist project, cell-based, luminescence, high throughput (AID 651611)
cond: StAR promoter luciferase reporter counterscreen, at 3.6 µM
Active and inactive are the calls of the source. Rule as the data show it: active = inhibition above about 28%; inactive = the rest.
// one of true (1) = active, false (0) = inactive, no free text

Recorded call for `NC(=S)N/N=C/c1ccc(-c2ccc([N+](=O)[O-])cc2)o1` ?
false (0)

Just curious, what result did `COc1ccc(NC(=O)c2sc(=O)n(Cc3ccc(F)c(Cl)c3)c2C)cc1OC` get here?
true (1)

Given `O=[N+]([O-])c1cnccc1Nc1ccc(F)cc1` , state the outcome it received in this test.
false (0)

Name the outcome recorded for `O=C(Nc1cccc(S(=O)(=O)Nc2ccc(Cl)cc2)c1)c1ccc(Cl)nc1` in the assay.
true (1)

State the result this test recorded for `Cc1c([N+](=O)[O-])cc(C(=O)Nc2ccc(Cc3ccncc3)cc2)cc1[N+](=O)[O-]` .
false (0)

What call does the record list for `N=c1c2c(n(Cc3ccc(Cl)c(Cl)c3)c3c1CCC3)CCCC2` ?
true (1)

Just curious, what result did `COc1ccc(S(=O)(=O)Nc2ccc3c(c2)n(C)c(=O)n3C)cc1F` get here?
false (0)

Which outcome was assigned to `O=C(CCC1CCCC1)Nc1ccc(C(=O)NCc2cccnc2)cc1` in this test?
true (1)

Answer briefly: the call reported for `O=C(NC(NNc1ccc([N+](=O)[O-])cc1)(C(F)(F)F)C(F)(F)F)c1ccccc1Cl` in this assay.
false (0)

In this assay, the call recorded for `Oc1[nH]c2ccc(Br)cc2c1N=NC(=S)N1CCOCC1` was what?
true (1)

Outcome logged for `Cc1ccc(NC(=O)C2=C(c3ccccc3)S(=O)(=O)CCS2(=O)=O)cc1` in this assay:
false (0)

What classification did `O=C(c1ccccc1)c1nn(-c2ccc(Cl)cc2)c(=O)cc1C(F)(F)F` end up with in this test?
true (1)

What did this assay record as the result for `S=C(NN=C(c1ccccc1)c1ccccn1)N(Cc1ccccn1)Cc1ccccn1` ?
true (1)

Which outcome was assigned to `CO/N=C\C(=N\Nc1ccc(OC)cc1)C(=O)c1ccccc1` in this test?
false (0)

I would be grateful if you could indicate the recorded call for `Cc1cc(C)cc(NC(=O)c2ccc([N+](=O)[O-])o2)c1` .
true (1)

Identify the outcome logged in this assay for the molecule shown: `O=C(Nc1cc(-c2nc3ncccc3o2)ccc1Cl)c1ccc([N+](=O)[O-])o1`
false (0)

Write down the call the test reported for this molecule. Item: `O=C(NCCc1c[nH]c2ccccc12)c1ccc([N+](=O)[O-])o1`
false (0)

Recorded call for `CCC(C)(C)c1ccc(OCCCC[n+]2ccccc2)c(C(C)(C)CC)c1` ?
false (0)

Query: recorded result category for CCOC(=O)C(=CNc1ccc(NC2=NCC(C)S2)cc1)C(=O)OCC (stereo not drawn) in this test
false (0)

Status in this test for `CS(=O)(=O)N1CCN(c2ccc(NC(=O)CSc3nnc(-c4ccco4)o3)cc2)CC1` ?
false (0)

Look up the recorded call for `O=C(CSc1ncn[nH]1)Nc1ccc(Cl)c(Cl)c1` in this test.
false (0)

What call does the record list for `O=C(c1ccccc1)N(NC(=O)C(O)(c1ccccc1)c1ccccc1)c1cccc(F)c1` ?
false (0)

Field: outcome | Entry: `COc1ccc2[nH]c3c(C)c4ccncc4c(C)c3c2c1`
true (1)

Which result was noted for this molecule in the test: `CCN1/C(=C\c2ccc3cc(C)ccc3[n+]2CC)Sc2cc(C)c(C)cc21`
true (1)

State the result this test recorded for `Cc1nn(Cc2ccc(Cl)cc2)c(C)c1NC(=O)c1ccc([N+](=O)[O-])cc1` .
true (1)

Any idea what this test logged for `CN(C)CCN1C(=O)c2cccc3cc([N+](=O)[O-])cc(c23)C1=O` ?
true (1)

Per the assay record, what outcome was assigned to Cc1c(Cl)cccc1NC(=O)CSc1nnc(C)n1CC1CCCO1 (stereo not drawn) ?
false (0)

Write down the call the test reported for this molecule. Item: `Cc1ccccc1Nc1nc(Cl)c(C=O)s1`
false (0)

# lookup: test call for `O=C(CSc1ncccc1-c1nc2ccccc2[nH]1)Nc1ccc2c(c1)OCCO2`
false (0)

// outcome(item) with item = `COc1ccc(-c2cn(-c3ccccc3)c3[n+]2CCS3)cc1`
false (0)

Dear all, I need the recorded test outcome for `COc1ccc(C(=O)Nc2cnn(Cc3ccc(Cl)cc3)c2)cc1OC` , thank you.
true (1)

Query: recorded result category for CC1CCC2(CC1)NC(=O)N(CC(=O)Nc1ccc(N3CCOCC3)cc1)C2=O (stereo not drawn) in this test
false (0)

Short answer needed: outcome of this test for `CCN1/C(=C/C=C/c2oc3ccc(-c4ccccc4)cc3[n+]2CC)Oc2ccc(-c3ccccc3)cc21` ?
true (1)

Outcome logged for `CC(=O)Nc1ccc(C2=CC(=O)CC(C)(C)C2)cc1` in this assay:
false (0)

Per the records of this test, what outcome belongs to `O=C(CSc1nncc(=O)[nH]1)Nc1cccc([N+](=O)[O-])c1` ?
false (0)

Recorded test call requested for `CCCCCCCCCCCCCCCCn1cc[n+](C)c1`
true (1)

Called result for `O=C1c2ccccc2-n2c1nc1ccccc1c2=O`
true (1)

Test call for this molecule, please: `NC(=O)CC[C@H](NC(=O)c1ccc(F)cc1)C(=O)OCC(=O)Nc1ccc(N2CCOCC2)cc1`
false (0)

I'd appreciate the recorded outcome for `CCCCCCCCCn1ccc(=N)cc1` from this test.
true (1)

What did the test return for CC(=O)N1c2ccc(S(=O)(=O)N3CCC(C(=O)Nc4cccc(C)n4)CC3)cc2CC1C (stereo not drawn) ?
false (0)

Could you kindly confirm the outcome this assay logged for `CCOc1ccc(S(=O)(=O)Nc2cc(OC)ccc2OC)cc1` ?
true (1)

Status in this test for `O=[N+]([O-])c1ccc(-n2cnc3ccccc32)c([N+](=O)[O-])c1` ?
false (0)

What outcome does the record of this test show for CCCC(=O)NC(c1ccccc1Cl)c1ccc2cccnc2c1O (stereo not drawn) ?
true (1)
